assay: NCI Yeast Anticancer Drug Screen. Data for the mec2-1 strain (AID 157); conditions: S. cerevisiae mec2-1 strain, at 50.0 µM, hits give high values
Compounds without any hit were thinned out: in the full panel of roughly 79,000, 15% have a hit.
Outcome measure: growth inhibition (%)
Expressed in %, but write only the number.

Below are worked cases with known answers.
Compound: COc1ccc(CCNC(=O)CC2CCN(C)CC2)cc1OC
Unit symbol: %
growth inhibition: -6.7
--
Compound: CC(C)CCC[C@@H](C)[C@H]1CC[C@H]2[C@@H]3CC[C@H]4C[C@@H](CCC=C(c5cc(Cl)c(O)c(C(=O)O)c5)c5cc(Cl)c(O)c(C(=O)O)c5)CC[C@]4(C)[C@H]3CC[C@]12C
Unit symbol: %
growth inhibition: 8.35
--
Compound: COC1OC2COC(c3ccccc3)OC2C(OC)C1OC(=O)c1ccccc1 (stereo not given)
Unit symbol: %
growth inhibition: 0.85

### Prompt Look up growth inhibition of CCCC(O)CO (stereo not given) and report it.
### Response 1.9

### Prompt Look up growth inhibition of CCOC(=O)C1=C(C)OC(C)(OC(C)=O)C1=O (stereo not given) and report it.
### Response -1.9

### Prompt Fill in reported growth inhibition for this entry: Nc1nc2c(c(-c3ccccc3Cl)n1)COC/C2=C\c1ccccc1Cl
### Response 18.8

### Prompt Report growth inhibition for Cc1n[nH]c(=O)[nH]c1=O
### Response -24.8

----------
test: NCI Yeast Anticancer Drug Screen. Data for the bub3 strain (AID 167); conditions: S. cerevisiae bub3 mutant strain, at 50.0 µM
This is part of a sample that, as a whole, favours compounds with a hit. Of some 79,000 tested, about 15% had one in any assay. Calls of active or inactive are those of the source. Cut-off read from the data, not from the text of the source: active = growth inhibition above about 70%; inactive = the rest.
The reply should be one of these categories: 1.0 = active, 0.0 = inactive

The following molecules have reported results that may help.
Chemical smiles: Cc1ccsc1C(=O)c1ccccc1
Assigned category: 0.0
--
Chemical smiles: Oc1ccc(N=Cc2ccc(C=Nc3ccc(O)cc3)cc2)cc1
Assigned category: 0.0
--
Chemical smiles: CC(C)(Oc1ccc(/C=C/C(=O)c2ccccc2)cc1)C(=O)Nc1c(Cl)cccc1Cl
Assigned category: 0.0
--
Chemical smiles: O=[N+]([O-])c1cccc(S/N=C/c2ccccc2)c1
Assigned category: 1.0
--
Chemical smiles: CCCCCCCCCCCCCCS(=O)(=O)CCCl
Assigned category: 0.0
--
Chemical smiles: Cc1c([N+](=O)[O-])ccc2c1C(=O)c1ccccc1C2=O
Assigned category: 0.0

### Prompt Hi, do you know how CC(=O)[O][Ga]([Br])[O]C(C)=O came out in this test?
### Response 0.0

### Prompt Dear all, I need the recorded test outcome for CCOC(=O)C(C(=O)OCC)C(NC(=O)Nc1cc(C(F)(F)F)ccc1OC)(C(F)(F)F)C(F)(F)F , thank you.
### Response 0.0

### Prompt Please share the test call associated with COC(=O)c1cncn1C1CC1 .
### Response 0.0

----------
experiment: NCI Yeast Anticancer Drug Screen. Data for the mec2-1 strain (AID 157); conditions: S. cerevisiae mec2-1 strain, at 50.0 µM, hits give high values
The panel holds about 79,000 compounds, 15% with a hit somewhere; the sample as a whole holds those more often.
Outcome measure: growth inhibition (%)
Write the value in % as a bare number.

// worked examples, growth inhibition included
Compound: C/C=C/C1OCC(C)(C)CO1
Outcome measure: growth inhibition
Recorded value: 22.9
--
Compound: COc1c(C)c(C)c(OC(C)=O)c(C)c1Br
Outcome measure: growth inhibition
Recorded value: -4.9
--
Compound: CCOC(=O)c1cc2cc(C)cc(C(=O)c3ccc([N+](=O)[O-])cc3)c2[nH]1
Outcome measure: growth inhibition
Recorded value: 25.4
--
Compound: O=C1CN2C(c3ccccc3)=NN(c3ccc([N+](=O)[O-])cc3)C2(c2ccccc2)c2cc(Cl)ccc2N1CC1CC1 (stereo not drawn)
Outcome measure: growth inhibition
Recorded value: -10.9

### Prompt Retrieve growth inhibition measured for CCCC(=O)Oc1ccc(C(=O)OC)cc1 and print it.
### Response -10.8
